Biological target: AChE (Homo sapiens)
Sequence (P22303 32-614): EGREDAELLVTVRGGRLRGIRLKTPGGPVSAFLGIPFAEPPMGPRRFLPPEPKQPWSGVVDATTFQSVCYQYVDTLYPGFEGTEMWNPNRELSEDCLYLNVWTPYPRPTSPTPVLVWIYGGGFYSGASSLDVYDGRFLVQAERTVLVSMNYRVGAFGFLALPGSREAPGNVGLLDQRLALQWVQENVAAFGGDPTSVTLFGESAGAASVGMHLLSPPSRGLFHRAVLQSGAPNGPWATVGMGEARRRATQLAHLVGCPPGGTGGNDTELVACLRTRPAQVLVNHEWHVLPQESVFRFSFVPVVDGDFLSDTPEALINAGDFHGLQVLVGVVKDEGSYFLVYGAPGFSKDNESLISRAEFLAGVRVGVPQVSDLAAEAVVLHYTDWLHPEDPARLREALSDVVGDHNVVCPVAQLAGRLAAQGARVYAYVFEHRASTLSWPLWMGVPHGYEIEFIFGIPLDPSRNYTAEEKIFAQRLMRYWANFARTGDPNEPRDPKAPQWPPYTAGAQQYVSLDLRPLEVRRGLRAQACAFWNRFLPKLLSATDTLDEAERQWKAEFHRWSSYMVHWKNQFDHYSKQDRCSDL

{"entrySmiles": "Cn1c(=O)c2c(ncn2Cc2nnn(CCCCCCC(=O)Nc3ccc(Br)cc3)n2)n(C)c1=O", "IC50 / µM": 63.5}
{"entrySmiles": "COc1ccc(OC(=O)CCCCCn2nnc(Cn3cnc4c3c(=O)n(C)c(=O)n4C)n2)cc1", "IC50 / µM": 267}
{"entrySmiles": "Cn1c(=O)c2c(ncn2Cc2nnn(CCCCCCC(=O)Nc3ccc(Cl)cc3)n2)n(C)c1=O", "IC50 / µM": 126}
{"entrySmiles": "Cn1c(=O)c2c(ncn2Cc2nnn(CCCCCC(=O)Nc3ccc(I)cc3F)n2)n(C)c1=O", "IC50 / µM": 105}
{"entrySmiles": "Cn1c(=O)c2c(ncn2Cc2nnnn2CCCCCCC(=O)Nc2ccc(I)cc2F)n(C)c1=O", "IC50 / µM": 143}
{"entrySmiles": "Cn1c(=O)c2c(ncn2Cc2nnn(CCCCC(=O)Nc3ccccc3)n2)n(C)c1=O", "IC50 / µM": 110}
{"entrySmiles": "Cn1c(=O)c2c(ncn2Cc2nnn(CCCCCCC(=O)Nc3cccc(Cl)c3)n2)n(C)c1=O", "IC50 / µM": 221}
{"entrySmiles": "COc1ccc(OC(=O)CCCCCCn2nnc(Cn3cnc4c3c(=O)n(C)c(=O)n4C)n2)cc1", "IC50 / µM": 106}
{"entrySmiles": "Cn1c(=O)c2c(ncn2Cc2nnn(CCCCCC(=O)Nc3ccc(F)c(Cl)c3)n2)n(C)c1=O", "IC50 / µM": 115}

---

Recorded below: IC50, system AChE (Homo sapiens, UniProt P22303).

{"entrySmiles": "Cn1c(=O)c2c(ncn2Cc2nnn(CCCCCC(=O)Oc3ccccc3)n2)n(C)c1=O", "IC50 / µM": 94.4}
{"entrySmiles": "Cn1c(=O)c2c(ncn2Cc2nnn(CCCCCCC(=O)Nc3ccc(F)c(Cl)c3)n2)n(C)c1=O", "IC50 / µM": 110}
{"entrySmiles": "Cn1c(=O)c2c(ncn2Cc2nnn(CCCCCC(=O)Nc3ccc(Br)cc3)n2)n(C)c1=O", "IC50 / µM": 84.1}
